Origin of measurements: ChEMBL document CHEMBL1149195

assayedSystem: Cholesterol side-chain cleavage enzyme, mitochondrial (Rattus norvegicus)
Sequence (P14137 whole entry): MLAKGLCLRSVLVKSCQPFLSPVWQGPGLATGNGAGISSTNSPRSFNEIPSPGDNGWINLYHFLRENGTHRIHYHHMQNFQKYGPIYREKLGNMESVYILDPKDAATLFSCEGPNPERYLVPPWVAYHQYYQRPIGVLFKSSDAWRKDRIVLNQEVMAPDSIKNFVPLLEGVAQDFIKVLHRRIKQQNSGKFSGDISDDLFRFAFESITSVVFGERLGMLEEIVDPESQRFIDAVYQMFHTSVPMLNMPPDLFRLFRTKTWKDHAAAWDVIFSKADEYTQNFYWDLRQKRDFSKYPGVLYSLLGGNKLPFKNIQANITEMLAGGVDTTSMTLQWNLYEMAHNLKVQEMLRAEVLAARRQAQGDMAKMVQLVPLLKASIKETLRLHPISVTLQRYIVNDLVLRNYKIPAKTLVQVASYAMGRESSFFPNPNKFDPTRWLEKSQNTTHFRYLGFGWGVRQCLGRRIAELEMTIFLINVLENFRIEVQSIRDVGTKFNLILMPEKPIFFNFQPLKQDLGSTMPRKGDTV
assaySummary: Stimulation of pregnenolone formation from rat C6 glioma cells
Format: functional, cell-based
Set-up: concentration or dose not given beside the values
readout: Activity
Reply with the number and its unit after it.

Query CCC(C)N(C(=O)C(=O)c1c(-c2ccccc2)[nH]c2ccccc12)C(C)CC (stereo not given) on Cholesterol side-chain cleavage enzyme, mitochondrial (Rattus norvegicus); Activity returned: 10%

The molecule CCCN(CCC)C(=O)C(=O)c1c(-c2ccccc2)[nH]c2ccccc12 , tested on Cholesterol side-chain cleavage enzyme, mitochondrial (Rattus norvegicus), showed Activity of 8%

Item CCCCCCN(CCCCCC)C(=O)C(=O)c1c(-c2ccccc2)[nH]c2ccccc12 was tested on Cholesterol side-chain cleavage enzyme, mitochondrial (Rattus norvegicus); the reported Activity is 30%

Param item: CCCCCCN(CCCCCC)C(=O)C(=O)c1c(-c2ccc(Cl)cc2)[nH]c2ccc(Cl)cc12 ; param system: Cholesterol side-chain cleavage enzyme, mitochondrial (Rattus norvegicus); output Activity: 166%

Item CCCCN(CCCC)C(=O)C(=O)c1c(-c2ccc(Cl)cc2)[nH]c2ccccc12 was tested on Cholesterol side-chain cleavage enzyme, mitochondrial (Rattus norvegicus); the reported Activity is 55%
